experiment: EBV LMP1-driven NF-kappaB luciferase reporter inhibitors, primary screen, cell-based, luminescence, single point (AID 504558); settings: LMP1-induced NF-kappaB luciferase reporter cells, at 12.5 µM
About 2,400 (0.69%) of roughly 350,000 compounds were called active. Cut-off read from the data, not from the text of the source: active = inhibition above about 41%; inconclusive = no clear call, values can overlap the other calls; inactive = below that. What follows is part of a selection rich in actives, with near analogues and random picks from the rest.
Permitted responses: y = active, n = inactive

// known answers, use as guide
| COMPOUND | CATEGORY_LABEL |
| --- | --- |
| CN1CCn2cnc(C(=O)NCC(=O)OC(C)(C)C)c2C1=O | n |
| COc1ccc(C(=O)OCC(=O)c2cc(C)n(CC3CCCO3)c2C)cc1[N+](=O)[O-] (stereo unspecified) | n |
| CC(C)=CCc1ccc(O)c(=O)cc1C(C)C | y |

Assay result, entry Cc1ccc(OCCCC(=O)Nc2ccc3c(c2)OCCO3)cc1 — outcome?
n

Assay result, entry COc1cccc(-n2c(=S)[nH]c3c(oc4ccccc43)c2=O)c1 — outcome?
n

Assay result, entry CC(C)c1cc(N=O)cc(C(C)C)c1O — outcome?
n

Assay result, entry COc1cc(C)c(CN2CCN(C(=O)CCC(=O)c3ccc(C)s3)CC2)cc1OC — outcome?
n

Assay result, entry C=CCN1CCN(c2ccncc2S(=O)(=O)N2CCN(C)CC2)CC1 — outcome?
n

Assay result, entry O=C(NCCOc1ccccc1)c1ccccc1F — outcome?
n

Assay result, entry CCOC(=O)C1CCN(C(=O)c2ccc3c(=O)n4nc(Nc5ccccc5CC)sc4nc3c2)CC1 — outcome?
n

Assay result, entry Cc1ccccc1-c1ccc2c(c1)O[C@@H](CN(C)Cc1ccc(C(=O)O)cc1)[C@@H](C)CN([C@H](C)CO)S2(=O)=O — outcome?
n

Assay result, entry S=C(NCC1CCCO1)N1CCN(c2ccc(Cl)c(Cl)c2)CC1 (stereo unspecified) — outcome?
n

Assay result, entry COc1ccc(C(=O)Nc2ccccc2C(=O)N/N=C/c2ccc(O)c(OC)c2)cc1 — outcome?
y
